The reported numbers originate from patent US10167284B2.

# Study Target: human muscarinic M1 receptor (Homo sapiens)
# Construct: expressed in transfected cells
# Sequence (P11229 whole entry): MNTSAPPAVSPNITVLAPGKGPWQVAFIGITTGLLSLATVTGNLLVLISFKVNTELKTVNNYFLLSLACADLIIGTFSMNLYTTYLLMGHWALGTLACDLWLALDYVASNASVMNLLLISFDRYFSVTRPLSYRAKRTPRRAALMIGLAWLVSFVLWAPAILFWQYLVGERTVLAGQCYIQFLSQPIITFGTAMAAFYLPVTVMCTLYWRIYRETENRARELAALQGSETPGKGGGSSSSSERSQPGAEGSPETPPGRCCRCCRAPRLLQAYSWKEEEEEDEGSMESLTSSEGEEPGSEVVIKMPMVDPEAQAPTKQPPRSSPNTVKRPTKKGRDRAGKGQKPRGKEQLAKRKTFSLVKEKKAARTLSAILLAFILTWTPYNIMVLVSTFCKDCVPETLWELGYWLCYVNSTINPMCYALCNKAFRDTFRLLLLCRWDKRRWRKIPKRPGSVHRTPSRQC
# Test Protocol: Alphascreen Surefire phospho-ERK1/2 functional assay, M1
# Assay type: cell-based
# Protocol Conditions: CHO cells stably expressing human M1; phospho-ERK1/2; read-out: pEC50 M1 (converted)
EC50 values by entry

| Compound | EC50 [nM] |
| --- | --- |
| CCOC(=O)N1CCC2(CC(N3CCC4(CC3)OC(=O)N(C)C4CC)C2)C1 (single isomer, unassigned) [4-20 Isomer 3] | 158 |
| CCC1NC(=O)CC12CCN(C1CC3(CCN(C(=O)OC)C3)C1)CC2 (single isomer, unassigned) [3-4 Isomer 3] | 79.4 |
| CCOC(=O)N1CCC2(CC(N3CCC4(CC3)OC(=O)N(CC3CC3)C4(C)C)C2)C1 (single isomer, unassigned) [4-39 Isomer 2] | 794 |
